System: Bacillus subtilis
Test: Antibacterial activity against Bacillus subtilis ATCC 6033 by serial dilution method
Assay type: functional
quantity.kind: MIC (µg/mL)

A. COc1cc(S(=O)(=O)N2CCC(C)CC2)ccc1-n1cnc2c(=O)[nH]c(N)nc21
B. CC1CCN(S(=O)(=O)c2ccc(-n3cnc4c(=O)[nH]c(N)nc43)cc2)CC1
C. Nc1nc2c(ncn2-c2ccc(S(=O)(=O)N3CCCCC3)cc2Cl)c(=O)[nH]1
Problem: Please list these in order of increasing MIC. Thank you! Reply with the labels, ordered as the question asks.
Solution: A, C, B
